molecular target: human NTCP (Homo sapiens); test: Screening taurocholate uptake assay (96-well, [14C]taurocholate, 10 µM drug); details: combined ranking from functional and binding screening assays
Sequence (Q14973 whole entry): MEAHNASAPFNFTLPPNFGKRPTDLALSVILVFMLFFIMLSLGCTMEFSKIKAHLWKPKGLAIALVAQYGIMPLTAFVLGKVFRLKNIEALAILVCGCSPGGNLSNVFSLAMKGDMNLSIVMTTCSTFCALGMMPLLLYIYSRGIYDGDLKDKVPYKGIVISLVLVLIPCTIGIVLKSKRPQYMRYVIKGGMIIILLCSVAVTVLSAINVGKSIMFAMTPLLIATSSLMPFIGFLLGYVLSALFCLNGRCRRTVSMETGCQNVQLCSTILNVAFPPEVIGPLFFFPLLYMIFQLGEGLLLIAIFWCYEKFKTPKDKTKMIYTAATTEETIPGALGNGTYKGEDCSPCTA
Where a name gives a salt, the structure may show the parent alone.
Metric: Ranking score

- Compound: "O=c1[nH]cc(F)c(=O)[nH]1"
  Number: 327.242
- Compound: "CC(CNC1CCCCC1)OC(=O)c1ccccc1 (stereo not shown) [Hexylcaine hydrochloride]"
  Number: 435.325
- Compound: "O=C(O)CCC(=O)c1ccc(-c2ccccc2)cc1"
  Number: 326.986
- Compound: "CN(C)CCOC(c1ccc(Cl)cc1)c1ccccn1.O=C(O)/C=C\\C(=O)O (stereo not shown) [Carbinoxamine maleate salt]"
  Number: 433.532
- Compound: "CN(C)CCOC(=O)COc1ccc(Cl)cc1.Cl [Meclofenoxate hydrochloride]"
  Number: 355.4
- Compound: "C[C@]12CC[C@H](O)C[C@H]1CC[C@@H]1[C@@H]2CC[C@]2(C)[C@@H](C3=CC(=O)OC3)CC[C@]12O"
  Number: 348.633
- Compound: "COc1ccc2cc(CCC(C)=O)ccc2c1"
  Number: 286.691
- Compound: "CCCNC(C)C(=O)Nc1c(C)csc1C(=O)OC (stereo not shown) [Articaine hydrochloride]"
  Number: 451.414
- Compound: "CCOC1O[C@H]([C@@H](COCc2ccccc2)OCc2ccccc2)[C@H](OCc2ccccc2)[C@H]1O (stereo partly shown) [Tribenoside]"
  Number: 300.985
- Compound: "Nc1ccc(S(=O)(=O)Nc2ccccn2)cc1"
  Number: 331.804
- Compound: "COc1ccc(C(=O)N2CCCC2=O)cc1"
  Number: 340.074
- Compound: "C[C@]12CC[C@H](O)C[C@H]1CC[C@@H]1[C@@H]2C[C@@H](O)[C@]2(C)[C@@H](C3=CC(=O)OC3)CC[C@]12O"
  Number: 283.718
- Compound: "CC(=O)OCC(=O)[C@@]12N=C(C)O[C@@H]1C[C@H]1[C@@H]3CCC4=CC(=O)C=C[C@]4(C)[C@H]3[C@@H](O)C[C@@]12C"
  Number: 446.866

Where do the numbers come from? From paper PMC5681660.
